Known log10 of Ki of a selection of binders
Target: T1, human plasma Kallikrein (human, UniProt P03952 20-638)
T1 construct: also called hPK; human PK
T1 sequence (P03952 20-638 limits assumed): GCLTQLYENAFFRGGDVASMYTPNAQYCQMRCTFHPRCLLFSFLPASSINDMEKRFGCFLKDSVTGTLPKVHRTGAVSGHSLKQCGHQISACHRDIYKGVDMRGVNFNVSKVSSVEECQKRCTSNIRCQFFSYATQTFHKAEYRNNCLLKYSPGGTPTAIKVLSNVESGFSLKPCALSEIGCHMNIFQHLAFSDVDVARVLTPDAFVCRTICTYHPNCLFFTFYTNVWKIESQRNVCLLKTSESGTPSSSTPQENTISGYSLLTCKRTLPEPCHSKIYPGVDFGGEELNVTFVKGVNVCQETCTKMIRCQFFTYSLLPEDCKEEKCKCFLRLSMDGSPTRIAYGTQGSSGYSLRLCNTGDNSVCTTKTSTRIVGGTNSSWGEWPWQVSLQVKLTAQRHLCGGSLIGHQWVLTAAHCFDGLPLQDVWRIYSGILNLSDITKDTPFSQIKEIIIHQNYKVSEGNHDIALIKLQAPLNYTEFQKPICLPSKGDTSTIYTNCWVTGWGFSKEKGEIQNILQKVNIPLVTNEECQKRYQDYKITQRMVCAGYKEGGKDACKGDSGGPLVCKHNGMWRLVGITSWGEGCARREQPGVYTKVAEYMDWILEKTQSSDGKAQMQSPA
Assay: enzyme inhibition
Experimental: Functional enzyme assays were conducted in 10 mM Tris HCl, 150 mM NaCl, 10 mM MgCl2, 1 mM CaCl₂) and 1 mg/mL BSA (all Sigma UK) pH7.4 at 25° C. in solid black 96 well plates. […] Release of AMC was measured using a Pherastar FS (BMG Labtech), excitation 360 nm, emission 460 nm. The rate of the linear phase of the reaction, typically 5 to 45 minutes, was calculated in MARS data analysis software (BMG labtech). The rate was then used to calculate the IC50 and Ki in Prism (GraphPad).
Numbered stars: 1 amine (or outer) side, 2 acyl side, 3 side chain; on linkers, the order of the positions; unused ones are H or OH. Bridge positions count the residues as written; N and C are the ends. Square brackets hold non-standard residues; d marks the D form. Ends that are not written are not given here. TBMB = c1c(C[*:1])cc(C[*:3])cc1C[*:2]; Sar = CNCC(=O)O
Each number you see is log10 of Ki, and the unit inside the log is nM.

Quick one: log10 of Ki for AC[Sar]WPARC[Sar]HQDLCA (linker 2-8-14 via TBMB; not fully specified (N-terminus, C-terminus), also called AC(N-MeG)WPARC(N-MeG)HQDLCA) [06-34-03 - N-MeGly1,6] ?
1.39
